STUDY_SYSTEM: recombinant human Meningioma Expressed Antigen 5 (MGEA5), also referred to as O-GlcNAcase (OGA) (Homo sapiens)
Construct: Full length OGA enzyme was purchased at OriGene (cat # TP322411); purchased OriGene TP322411
TEST_DESCRIPTION: OGA biochemical assay (inhibition of FM-GlcNAc hydrolysis, fluorescence)
DETAILS: read-out: ENZYMATIC hOGA; pIC50 (converted)
RECORDED_METRIC: IC50 (nM)

A selection of reference data follows.
1. CC(=O)Nc1ncc(CN2CCC3(CCN(c4cnc(C)c(C)c4)C3)C2)s1 (centres unmarked): 8.51
2. CC(=O)Nc1ncc(CN2CCC3(CCN(c4cc(C)c(C)cn4)C3)C2)s1 (centres unmarked): 28.2
3. CC(=O)Nc1ncc(CN2CCC3(CCN(c4cc(C)cnc4C)C3)C2)s1 (centres unmarked): 25.1

a = CC(=O)Nc1ncc(CN2CCC3(CCN(c4ccnc(C(F)(F)F)c4)C3)C2)s1 (centres unmarked)
b = CC(=O)Nc1ncc(CN2CCC3(CCN(c4cc(C)nc(C)c4)C3)C2)s1 (single isomer, unassigned) [Product 2]
c = Cc1cc(N2CCC3(CCN(C(C)c4ccc5nccnc5c4)C3)C2)cc(C)n1 (centres unmarked) [Product 6]
d = CC(=O)Nc1ncc(CN2CCC3(CCN(c4nnc(C)cc4C)C3)C2)s1 (centres unmarked)
e = CC(=O)Nc1ncc(CN2CCC3(CCN(c4ccnc(C)c4)C3)C2)s1 (centres unmarked)
Number of compounds to sort: 5. Sort criterion: IC50, ascending. Give the order by naming the labels one after another as requested.
b, e, a, d, c
(b: 10.2 nM, e: 16.2 nM, a: 26.3 nM, d: 45.7 nM, c: 97.7 nM)

###

STUDY_SYSTEM: recombinant human Meningioma Expressed Antigen 5 (MGEA5), also referred to as O-GlcNAcase (OGA) (Homo sapiens, UniProt O60502)
Construct: Full length OGA enzyme was purchased at OriGene (cat # TP322411); purchased OriGene TP322411
Sequence (O60502 whole entry): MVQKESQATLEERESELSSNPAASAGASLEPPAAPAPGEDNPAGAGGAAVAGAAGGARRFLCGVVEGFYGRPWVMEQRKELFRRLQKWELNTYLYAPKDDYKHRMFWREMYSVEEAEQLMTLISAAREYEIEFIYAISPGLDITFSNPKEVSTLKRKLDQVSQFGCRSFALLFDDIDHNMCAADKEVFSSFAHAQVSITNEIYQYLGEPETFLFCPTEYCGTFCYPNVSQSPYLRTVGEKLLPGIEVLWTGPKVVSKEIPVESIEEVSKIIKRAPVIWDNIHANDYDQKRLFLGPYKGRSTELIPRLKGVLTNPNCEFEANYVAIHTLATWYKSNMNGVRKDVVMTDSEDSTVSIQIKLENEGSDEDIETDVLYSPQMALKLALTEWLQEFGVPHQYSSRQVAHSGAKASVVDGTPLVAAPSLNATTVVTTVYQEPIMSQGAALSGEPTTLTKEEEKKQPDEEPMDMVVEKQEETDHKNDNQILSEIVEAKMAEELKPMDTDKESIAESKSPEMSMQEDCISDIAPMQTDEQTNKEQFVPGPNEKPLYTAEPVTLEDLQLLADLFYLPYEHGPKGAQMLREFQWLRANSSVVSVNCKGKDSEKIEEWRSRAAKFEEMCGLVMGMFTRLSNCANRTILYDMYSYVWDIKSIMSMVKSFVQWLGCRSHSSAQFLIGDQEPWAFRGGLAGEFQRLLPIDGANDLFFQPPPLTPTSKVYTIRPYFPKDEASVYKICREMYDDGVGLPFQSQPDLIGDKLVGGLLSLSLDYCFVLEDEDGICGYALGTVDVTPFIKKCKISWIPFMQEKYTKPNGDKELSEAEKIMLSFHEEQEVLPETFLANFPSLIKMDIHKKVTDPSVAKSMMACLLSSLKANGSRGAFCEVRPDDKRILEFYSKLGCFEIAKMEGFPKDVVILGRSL
TEST_DESCRIPTION: OGA biochemical assay (inhibition of FM-GlcNAc hydrolysis, fluorescence)
DETAILS: read-out: ENZYMATIC Emax (%)
RECORDED_METRIC: Emax (%)

1. Cc1cc(N2CCC3(CCN(C(C)c4ccc5nccnc5c4)C3)C2)nc(C)n1.Cl (centres unmarked): 97.6
2. Cc1cc(N2CCC3(CCN(C(C)c4ccc5c(c4)OCO5)C3)C2)nc(C)n1 (centres unmarked): 99.8
3. CC(=O)Nc1ncc(CN2CCC3(CCN(c4cncc(C5CC5)n4)C3)C2)s1 (centres unmarked): 100
4. CNc1cncc(N2CCC3(CCN(Cc4cnc(NC(C)=O)s4)C3)C2)n1 (centres unmarked): 101
5. CC(=O)Nc1ncc(CN2CCC3(CCN(c4ncc(C)cc4C)C3)C2)s1 (centres unmarked): 99.6

###

STUDY_SYSTEM: recombinant human Meningioma Expressed Antigen 5 (MGEA5), also referred to as O-GlcNAcase (OGA) (Homo sapiens)
Construct: Full length OGA enzyme was purchased at OriGene (cat # TP322411); purchased OriGene TP322411
TEST_DESCRIPTION: OGA biochemical assay (inhibition of FM-GlcNAc hydrolysis, fluorescence)
DETAILS: read-out: ENZYMATIC Emax (%)
RECORDED_METRIC: Emax (%)

1) CCc1cc(N2CCC3(CCN(Cc4cnc(NC(C)=O)s4)C3)C2)cc(C)n1 (stereo not drawn) [Product 64]: 101
2) CC(=O)Nc1ncc(CN2CCC3(CCN(Cc4ccc(C(F)(F)F)cn4)C3)C2)s1 (stereo not drawn) [Product 35]: 84.4
3) CC(=O)Nc1ncc(CN2CCC3(CCN(c4nnc(C)cc4C)C3)C2)s1 (stereo not drawn) [Product 55]: 99
4) CC(=O)Nc1cnc(N2CCC3(CCN(C(C)c4ccc5c(c4)OCO5)C3)C2)nc1 (stereo not drawn) [Product 16]: 79
5) CC(=O)Nc1ncc(CN2CCC3(CCN(c4c(C)cncc4C)C3)C2)s1 (stereo not drawn) [Product 60]: 100
6) CC(=O)Nc1ncc(CN2CCC3(CCN(c4cc(C)ncc4C(F)(F)F)C3)C2)s1 (stereo not drawn) [Product 34]: 102
7) CC(=O)Nc1ncc(CN2CCC3(CCN(c4cnc(C)nc4)C3)C2)s1 (stereo not drawn) [Product 45]: 99.2
8) CC(=O)Nc1ncc(CN2CCC3(CCN(c4cncc(C)n4)C3)C2)s1 (stereo not drawn) [Product 12]: 101
9) COc1cc(N2CCC3(CCN(Cc4cnc(NC(C)=O)s4)C3)C2)cc(C)n1 (stereo not drawn) [Product 58]: 102
10) CC(=O)Nc1ncc(CN2CCC3(CCN(c4cc(C(F)(F)F)cc(C)n4)C3)C2)s1 (stereo not drawn) [Product 62]: 100
11) CC(=O)Nc1ncc(CN2CCC3(CCN(c4nc(C)ncc4C)C3)C2)s1 (stereo not drawn) [Product 54]: 101
12) CC(=O)Nc1ncc(CN2CCC3(CCN(Cc4cc(C)nc(C)c4)C3)C2)s1 (stereo not drawn) [Product 17]: 90.6
13) CC(=O)Nc1ncc(CN2CCC3(CCN(c4cncc(C(F)(F)F)c4)C3)C2)s1 (stereo not drawn) [Product 69]: 99.1
14) Cc1cc(N2CCC3(CCN(Cc4ccc5sc(C)nc5c4)C3)C2)nc(C)n1 (stereo not drawn) [Product 32]: 102
15) CC(=O)Nc1ncc(CN2CCC3(CCN(c4cc(C)nc(C)n4)C3)C2)s1 (stereo not drawn) [Product 9]: 101
16) Cc1cc(N2CCC3(CCN(C(C)c4cc5ccccc5n4C)C3)C2)nc(C)n1.Cl (stereo not drawn) [Product 27]: 79.4
17) CC(=O)Nc1ncc(CN2CCC3(CCN(c4ncc(F)cc4F)C3)C2)s1 (stereo not drawn) [Product 46]: 99
18) CC(=O)Nc1ncc(CN2CCC3(CCN(c4nc(C)cnc4C)C3)C2)s1 (stereo not drawn) [Product 40]: 98.4
